# Test Target: Telomerase reverse transcriptase (Homo sapiens, UniProt O14746)
# Sequence (O14746 whole entry): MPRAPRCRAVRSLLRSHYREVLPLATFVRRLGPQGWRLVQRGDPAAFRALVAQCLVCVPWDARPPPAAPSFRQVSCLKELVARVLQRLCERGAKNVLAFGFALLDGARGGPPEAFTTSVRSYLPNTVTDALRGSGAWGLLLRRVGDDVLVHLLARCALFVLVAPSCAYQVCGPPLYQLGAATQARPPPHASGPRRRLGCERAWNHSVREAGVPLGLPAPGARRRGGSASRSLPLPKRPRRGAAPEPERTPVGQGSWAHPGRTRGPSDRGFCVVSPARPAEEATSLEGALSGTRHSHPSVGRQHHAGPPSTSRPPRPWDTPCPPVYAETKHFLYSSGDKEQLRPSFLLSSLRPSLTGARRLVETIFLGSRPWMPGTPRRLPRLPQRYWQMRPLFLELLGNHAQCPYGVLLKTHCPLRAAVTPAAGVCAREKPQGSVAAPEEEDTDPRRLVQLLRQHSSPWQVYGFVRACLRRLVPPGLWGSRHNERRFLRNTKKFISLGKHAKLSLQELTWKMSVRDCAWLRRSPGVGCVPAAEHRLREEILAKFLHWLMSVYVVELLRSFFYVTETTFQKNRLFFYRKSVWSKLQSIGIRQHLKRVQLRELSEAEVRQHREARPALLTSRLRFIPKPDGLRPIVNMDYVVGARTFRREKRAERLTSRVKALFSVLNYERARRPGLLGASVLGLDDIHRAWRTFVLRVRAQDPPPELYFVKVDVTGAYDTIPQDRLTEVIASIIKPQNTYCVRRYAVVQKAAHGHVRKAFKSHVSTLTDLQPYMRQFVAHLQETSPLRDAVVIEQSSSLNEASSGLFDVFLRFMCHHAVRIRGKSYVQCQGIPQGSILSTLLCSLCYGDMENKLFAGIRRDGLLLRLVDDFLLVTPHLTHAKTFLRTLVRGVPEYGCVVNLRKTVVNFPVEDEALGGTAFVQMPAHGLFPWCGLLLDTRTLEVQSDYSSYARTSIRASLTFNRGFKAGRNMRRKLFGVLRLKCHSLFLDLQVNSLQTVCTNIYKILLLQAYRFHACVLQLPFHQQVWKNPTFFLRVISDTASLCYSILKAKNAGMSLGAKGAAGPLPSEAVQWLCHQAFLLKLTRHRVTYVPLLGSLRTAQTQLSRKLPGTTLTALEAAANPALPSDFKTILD
# Method Description: Apparent telomerase inhibition by mixed mechanism
Measured Parameter: IC50 (µM)
Numbers only; they are read as µM.

OCC[n+]1ccc(-c2c3nc(c(-c4cc[n+](CCO)cc4)c4ccc([nH]4)c(-c4cc[n+](CCO)cc4)c4ccc([nH]4)c(-c4cc[n+](CCO)cc4)c4nc2C=C4)C=C3)cc1 :: 30

Note to self: IC50 recorded for C[n+]1cccc(-c2c3nc(c(-c4cc5ccccc5[n+](C)c4)c4ccc([nH]4)c(-c4ccc[n+](C)c4)c4nc(c(-c5cc6ccccc6[n+](C)c5)c5ccc2[nH]5)C=C4)C=C3)c1 was 10

Note to self: IC50 recorded for C[n+]1cccc(-c2c3ccc([nH]3)c(-c3cc4ccccc4[n+](C)c3)c3nc(c(-c4cc5ccccc5[n+](C)c4)c4nc(c(-c5cc6ccccc6[n+](C)c5)c5ccc2[nH]5)C=C4)C=C3)c1 was 5

Note to self: IC50 recorded for C[n+]1ccc(-c2c3nc(c(-c4ccc(C(=O)NCCBr)cc4)c4nc(c(-c5cc[n+](C)cc5)c5ccc([nH]5)c(-c5cccc(C(=O)NCCBr)c5)c5ccc2[nH]5)C=C4)C=C3)cc1 was 15
